test system: OVCAR-8 ovarian; assay: NCI-60 one-dose screen, 48 h; conditions: 10 µM unless noted
The panel holds about 83,000 compounds, 20% with a hit somewhere; the sample as a whole holds those more often. Activity calls are given as the source filed them. How the source made its calls: active means growth percent below 10; inactive means the rest.
Classes used: active, inactive

[[record]]
compound = "COc1ccc(C(=O)/C=C/c2ccccc2Cl)cc1S(N)(=O)=O"
classassignment = "inactive"

[[record]]
compound = "O=C(c1ccc(Cl)cc1)c1ccc(OCCCN2CCN(c3ccncc3)CC2)cc1"
classassignment = "inactive"

[[record]]
compound = "COc1ccc(-c2nc(SC(C)C)nc(NCCc3c[nH]c4ccccc34)c2C#N)cc1"
classassignment = "inactive"

[[record]]
compound = "C=C1CCC2C3(C)COC(c4ccc(F)cc4)OC3CCC2(C)C1CC(O)C1=CCOC1=O (stereo not given)"
classassignment = "active"

[[record]]
compound = "COc1cc2c(c(OC)c1OC)C(=O)CC(c1cccc(NC(=O)[C@@H](N)CC(C)C)c1)O2 (stereo not given in full)"
classassignment = "inactive"

